Reference source: patent US20260242478A1

# Test System: T1, Anti-PSMA Fab (SEQ ID NOs: 19, 20)
# T1 construct: Biotinylated and captured on neutravidin coated plates in the phage ELISA; also called 006 PSMA Fab
# Protocol Notes: phage binding ELISA on plate-captured PSMA Fab, wells pre-incubated with PSMA antigen as competitor
Where no end group is shown, it is not given here.
Metric: Anti-PSMA Fab signal in the presence of PSMA
Quick one: just the number, no unit, thanks!

Here are 3 binders together with their reported answers.
LSKWCIPEWMCAVM (cysteine pairing not given here; also: pIII fusion on bacteriophage (not given here)) [Phage-2231]	0.0848
FLKWCTPEWMCSDV [Phage-2223]	0.128
LAYWCTPAWMCEGF [Phage-2226]	0.112

Lookup result for VSAWCIPPWMCGTN [Phage-2237] ; measured Anti-PSMA Fab signal in the presence of PSMA: 0.0801

Lookup result for TDMWCIPPWMCERI [Phage-2230] ; measured Anti-PSMA Fab signal in the presence of PSMA: 0.0846

Lookup result for PRKWCIPAWMCEII [Phage-2236] ; measured Anti-PSMA Fab signal in the presence of PSMA: 0.0733
